Target: Prostaglandin G/H synthase 1 (Homo sapiens, UniProt P23219)
Sequence (P23219 whole entry): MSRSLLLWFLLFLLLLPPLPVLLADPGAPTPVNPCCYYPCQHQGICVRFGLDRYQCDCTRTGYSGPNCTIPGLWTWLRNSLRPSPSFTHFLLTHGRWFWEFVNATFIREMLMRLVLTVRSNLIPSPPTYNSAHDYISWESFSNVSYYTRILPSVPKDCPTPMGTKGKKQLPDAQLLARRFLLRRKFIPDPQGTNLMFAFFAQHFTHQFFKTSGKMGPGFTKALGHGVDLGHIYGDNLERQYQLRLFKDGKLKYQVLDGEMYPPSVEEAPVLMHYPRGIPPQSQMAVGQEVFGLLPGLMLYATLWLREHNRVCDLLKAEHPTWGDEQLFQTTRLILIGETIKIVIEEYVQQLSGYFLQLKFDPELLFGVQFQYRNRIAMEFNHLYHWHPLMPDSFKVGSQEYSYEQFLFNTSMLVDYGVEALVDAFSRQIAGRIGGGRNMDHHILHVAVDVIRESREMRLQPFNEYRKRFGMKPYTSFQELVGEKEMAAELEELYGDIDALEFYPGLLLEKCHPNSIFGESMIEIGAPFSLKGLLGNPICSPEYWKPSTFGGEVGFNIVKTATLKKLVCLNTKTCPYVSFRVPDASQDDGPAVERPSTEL
pIC50: −log10 of the molar value.

compound structure string | tested on | pIC50
CC1(C)OC(=O)C(Oc2ncc(Cl)cc2Cl)=C1c1ccc(S(C)(=O)=O)cc1 | Prostaglandin G/H synthase 1 (Homo sapiens, UniProt P23219) | 6.52
Cc1ccc(OC2=C(c3ccc(S(C)(=O)=O)cc3)C(C)(C)OC2=O)nc1 | Prostaglandin G/H synthase 1 (Homo sapiens, UniProt P23219) | 5.52
CC1(C)OC(=O)C(Oc2ccc3ccccc3n2)=C1c1ccc(S(C)(=O)=O)cc1 | Prostaglandin G/H synthase 1 (Homo sapiens, UniProt P23219) | 5.52
CC1(C)OC(=O)C(Oc2cccc3cnccc23)=C1c1ccc(S(C)(=O)=O)cc1 | Prostaglandin G/H synthase 1 (Homo sapiens, UniProt P23219) | 5.52
